Just for reference, patent US9282743B2 is where these values come from.

pest or weed control at 250 g/ha values, listed per item
tested on: Lolium perenne (LOLPE); assay: Example B7: pre application on weeds, LOLPE; type: in vivo; details: 312 h, pre-emergence spray one day after sowing, evaluated after 13 days, read-out: Pre application on weeds, LOLPE (100=total damage to plant; 0=no damage to plant)
Report the figure in % without appending any unit label.

The cases that follow already have their pest or weed control at 250 g/ha on record.
• CON1CCN2C(=O)C(c3c(C)cc(Cl)cc3Br)C(=O)N2CC1 [Compound P2.11] = 80
• C#Cc1cc(C)c(C2C(=O)N3CCN(OC)CCN3C2=O)c(C)c1 [Compound P2.8] = 60
• CON1CCN2C(=O)C(c3c(C)cc(C)cc3C)C(=O)N2CC1 [Compound P2.1] = 100

Consider the compound shown here: CCOC(=O)Oc1c(-c2c(C)cc(C)cc2C)c(=O)n2n1CCN(OC)CC2 [Compound P1.2] What is its recorded pest or weed control at 250 g/ha?
90

Consider the compound shown here: CCOC(=O)Oc1c(-c2c(C)cc(Br)cc2C)c(=O)n2n1CCN(OC)CC2 [Compound P1.10] What is its recorded pest or weed control at 250 g/ha?
70

====

Tested on: Winter wheat (TRZAW)
Test: Example B8: post application on wheat, with and without safener cloquintocet-mexyl
Assay type: in vivo
Conditions: 250 g/ha, without safener, after 13 days, 100 = total damage, 0 = no damage
Description: Application with Safener (Cloquintocet-Mexyl) Winter wheat seeds with a seed treatment of cloquintocet-mexyl applied at a rate of 0.5 g/kg seeds were sown in standard soil in pots. […] After 13 days, the test was evaluated (100=total damage to plant; 0=no damage to plant).
TRZAW damage to plant strictly under 70 means YES; at 70 or over means NO.

* CCOC(=O)Oc1c(-c2c(C)cc(C)cc2C)c(=O)n2n1CCN(OC)CC2 [Compound P1.2] | NO
* CON1CCN2C(=O)C(c3c(C)cc(Cl)cc3Br)C(=O)N2CC1 [Compound P2.11] | YES
* CCOC(=O)Oc1c(-c2c(C)cc(Cl)cc2Br)c(=O)n2n1CCN(OC)CC2 [Compound P1.12] | YES
* CON1CCN2C(=O)C(c3c(C)cc(Cl)cc3C)C(=O)N2CC1 [Compound P2.2] | YES
* CON1CCN2C(=O)C(c3c(C)cc(C)cc3C)C(=O)N2CC1 [Compound P2.1] | YES

In plain terms, does CCOC(=O)Oc1c(-c2c(C)cc(C)cc2OC)c(=O)n2n1CCN(OC)CC2 [Compound P1.9] come in under 70 for TRZAW damage to plant?
NO

In plain terms, does C#Cc1cc(C)c(C2C(=O)N3CCN(OC)CCN3C2=O)c(C)c1 [Compound P2.8] come in under 70 for TRZAW damage to plant?
YES

====

tested on: Lolium perenne (LOLPE); experiment: Example B7: pre application on weeds, LOLPE; format: in vivo; conditions: 312 h, pre-emergence spray one day after sowing, evaluated after 13 days, read-out: Pre application on weeds, LOLPE (100=total damage to plant; 0=no damage to plant)
readout label: pest or weed control at 250 g/ha (%)
Report the figure in % without appending any unit label.

- COc1cc(C)cc(C)c1C1C(=O)N2CCN(OC)CCN2C1=O [Compound P2.12]: 70
- CON1CCN2C(=O)C(c3c(C)cc(Br)cc3C)C(=O)N2CC1 [Compound P2.9]: 80
- CON1CCn2c(OC(=O)C(C)(C)C)c(-c3c(C)cc(C)cc3C)c(=O)n2CC1 [Compound P1.1]: 100
- CCOC(=O)Oc1c(-c2c(C)cc(Cl)cc2Br)c(=O)n2n1CCN(OC)CC2 [Compound P1.12]: 100
- C#Cc1cc(C)cc(C)c1-c1c(OC(=O)OCC)n2n(c1=O)CCN(OC)CC2 [Compound P1.5]: 30

--- query ---
Report pest or weed control at 250 g/ha for CCOC(=O)Oc1c(-c2c(C)cc(C)cc2OC)c(=O)n2n1CCN(OC)CC2 [Compound P1.9] tested on Lolium perenne (LOLPE).
80

====

tested on: Winter wheat (TRZAW); test: Example B8: post application on wheat, with and without safener cloquintocet-mexyl; assay type: in vivo; conditions: 250 g/ha, without safener, after 13 days, 100 = total damage, 0 = no damage
readout label: TRZAW damage to plant
Form rule: numeric answer, no unit written next to it.

The cases that follow already have their TRZAW damage to plant on record.
* COc1cc(C)cc(C)c1C1C(=O)N2CCN(OC)CCN2C1=O [Compound P2.12] | 70
* CON1CCn2c(OC(=O)C(C)(C)C)c(-c3c(C)cc(C)cc3C)c(=O)n2CC1 [Compound P1.1] | 70
* C#Cc1cc(C)c(-c2c(OC(=O)OCC)n3n(c2=O)CCN(OC)CC3)c(C)c1 [Compound P1.8] | 60
* C#Cc1cc(C)cc(C)c1C1C(=O)N2CCN(OC)CCN2C1=O [Compound P2.5] | 80
* CCOC(=O)Oc1c(-c2c(C)cc(Cl)cc2C)c(=O)n2n1CCN(OC)CC2 [Compound P1.3] | 70
* CCOC(=O)Oc1c(-c2c(Cl)cc(C)cc2Br)c(=O)n2n1CCN(OC)CC2 [Compound P1.11] | 60

Consider the molecule shown here: CON1CCN2C(=O)C(c3c(Cl)cc(C)cc3Br)C(=O)N2CC1 [Compound P2.10] What is its recorded TRZAW damage to plant?
70

Consider the molecule shown here: CON1CCN2C(=O)C(c3c(C)cc(Br)cc3C)C(=O)N2CC1 [Compound P2.9] What is its recorded TRZAW damage to plant?
60

Consider the molecule shown here: CCOC(=O)Oc1c(-c2c(C)cc(Br)cc2C)c(=O)n2n1CCN(OC)CC2 [Compound P1.10] What is its recorded TRZAW damage to plant?
60
